# test name: soluble on expression in E. coli; label from the status in PepcDB or PDB records
measured property: soluble on expression in E. coli

Solved cases below.
INPUT: Query (sequence): MATPAYMSITGTKQGLITAGAFTEDSVGNTYQEGHEDQVMVQGFNHEVIIPRDPQSGQPTGQRVHKPVVITKVFDKASPLLLAALTSGERLTKVEIQWYRTSAAGTQEHYYTTVLEDAIIVDIKDYMHNCQDPGNAHFTHLEDVHFTYRKITWTHEVSGTSGSDDWRSPVAG ; field requested: soluble on expression in E. coli
OUTPUT: soluble

INPUT: What value of measured soluble on expression in E. coli is listed for GPLGSMTGPSVHDRALGAFLGLAVGDALGATVEFMTKGEIAQQYGIHRKMTGGGWLRLKPGQITDDTEMSLALGRSLAAKGTLDVADICEEFALWLKSRPVDVGNTCRRGIRRYMHEGTTTAPYSEGDAGNGAAMRCLPAALATLGHPADLEPWVLAQARITHNHPLSDAACLTLGRMVHHLIGGRGMKACREEANRLVHQHRDFHFEPYKGQSSAYIVDTMQTVLHYYFVTDTFKSCLIQTVNQGGDADTTGALAGMLAGATYGVDDIPSGWLSKLDMKVEREIRRQVDALLALAGLD ?
OUTPUT: soluble

INPUT: Item MGREFLDLFEQWAESYDQSVEGYDEQYRDVFAGYDRILSTVADKAGQVVLEFGIGTGNLTKKLLERGKTVYGIEPSAPMRKKAAEKLGERAVIMDGDFLQFPLPPEPIDTIASTYAFHHLTDAEKDEAIAKYSQLLHSGGKIVFADTAFRDKEAFRQTVEAARARGFHDLADDLEREYYTTLDVLASLFANHGFSVSFAQQNAFVWVMEAVKQTTLEHHHHHH has what recorded soluble on expression in E. coli?
OUTPUT: soluble

INPUT: Data request, read-out soluble on expression in E. coli, for MKVPPKKKFLGNSEHPGDLLTQTSKCECQLASVYGNGRVPVKNKKATNAYFQQSIPSWSDTLRMTRQNKKQRGRRRWKKNRKKRRVKTG
OUTPUT: not soluble

INPUT: Please report the recorded soluble on expression in E. coli for MSELTQLAQQEKKQTYNFNKLQKRLRRNVGNAIADFGMIEDGDKVMVCLSGGKDSYTLLDILLNLQQSAPIKFDIVAVNLDQKQPGFPEHVLPEYLESIGVDYKIVQENTYGIVKEKIPEGKTTCSLCSRLRRGILYRTATELGATKIALGHHRDDMLATLFLNMFYGGKIKSMPPKLISDDGKQIVIRPLAYCKEKDIEKYAIAKEFPIIPCNLCGSQPNLQRQVVKEMLNTWDRQYPGRLETMFSAMQNITLSHMCDPKLFDFKGIKHGQLIDGIEGDTAFDEERITPMQFEDEDQTDFSNKEMINFKEVN .
OUTPUT: not soluble

Alright, here's another sequence for you.
INPUT: Please report the recorded soluble on expression in E. coli for GPGSMGRNKKSKATAHAQACSDGEREEEHGAVPTTTLPARAEGCEEENGASAAAADGAQGTPDHHSGRCSERGRDSDDDAPKTKKEYRGNRLKKLEVQRKKGKGKGANEDDKAEEAAREGDAHEEPLVVTRQRAVEVLYCPICTFPAEMCEFSGIVEKCRPWLLEHAADLADAEERGRKRRILTEKDRLEAMLEGRGVKKALERIVVLEVEKRTGRRMITSVFGMDLFGFNLKDVSRDWRKRFSCGAGVRAAEEGKHQDCIDIQGNVVDQLADMLITKYKIPKESVYLMEGKKKVPYPY .
OUTPUT: not soluble

* * *

# test name: soluble on expression in E. coli; label from the status in PepcDB or PDB records
measured property: soluble on expression in E. coli

Recorded results for 6 sequences are shown here.
INPUT: Any idea what its soluble on expression in E. coli is? The sequence is MNFIFDIDGTICFDGCSIDSSIKQRLFKLRQANHNVIFASARPIRDLLPVIPEFADDTLIGGNGSIISKNGQIEIVSVINEHDISLIKKIIKKYQLSYIIDDKFNYASNLDSNNELYQRIDPDGKAQSLDMDEIRNPIKAILLNIDNKDFDMIAHQLVSQSHGIELIRHYSESYIDVTARGVDKYTTIQYILGTNSDYIAFGNDHNDVHMLEHASQGYFVTNQFIEHTSFFKNKNITVIDDTIYAICEVLDRYL
OUTPUT: not soluble

INPUT: Given the entry MGSDKIHHHHHHMKVLNLLSAGGIGGIEQLCSNIAKYANYDNTFCFMFEDGQIYKEMKKSGADVISFAECSSKKISKKRWESLCELAEKADIIVTHHCTIALHIYYCALKKRFKNKKFVMTIHSCFDPELNYNYGSWIKNKIAKWNIEEALKISDKIIFVSEAGRRSYLDNFNIDVTKTKVIYNGVEVSAISIDSIKLENNYTRITYIGRVEKIKGLDLFVCALKKLLNDDSNIKVWIIGDGSFRNELEMLVQKLDLTGVIEFTGAKRNIGDYLRKTDLFIYPSTCQEVFGISIVEAMSYGVPCVANNVGGIPEIIENDYNGFITSKTNDDELYKCMYKFIKLDPKLITQMRNNCLLTAEKFSINCTIDNLEKTLKGMM , report its measured soluble on expression in E. coli.
OUTPUT: not soluble

INPUT: Give the measured soluble on expression in E. coli of MAHHHHHHMNYAAVINGPFSSNNGNNHYSRLGYTPNGYGPQPNTTEQNPQMVPYQTFNSAAGQPVNVYQQIPPTSASRDPRTNIHIGSKLFVGQVPAMTTEEQLRPVFEPYGELLEVKIMRDPLGRSKGSAWVRYETNEMAMNAINALHEKHTVPPQTNPLRVQFATPNSVRHQQLQARYAVELKVPMNQYNFGGQMGGGTQQSGMVMLRSGASPNVVPPISANVGGRYMSAPFGGGPMESSSIMSGPYTSSANCFDGVNSSGNRRDLYSPLEQPQGTAPQLYQQQQQQQRGGFSSPVVTPPSVYNQASSTRQPTARNNNTKSGGGISMGSFESGHGMVNPNSNGAPTMANEMSTLDAGIALWEARNNNGLQGQEPREAAARVRSGERKEE .
OUTPUT: not soluble

INPUT: If you can, please state the reported soluble on expression in E. coli value of MAHHHHHHMGSKYGSGNYQLFRALYKDLCDEIRREYYTKPPPPPPATRTTGASPSLVAAEAALEVHGSAGSGANDTSSGAAKQRSMAGGAGATSSSTQGGGMTAGSEREGSTVEAAHAARETAATPPSQPEETYGDGSWSVQHRPEDNVAVFHRGAVKRGRLAAVHAWARIELKDPPRLNAVLTFADWIPIEVCVERNGIVIHFSMAANEGGMHMRNVRVYEPKSAEERAALLDPSDDGEYARKNFYYDGPCLWHLELDMLNELYDVMQDHGVTLDWIRWAASWVFYLEHVNYVRWNLGMLEELIPSSLRGPEEDFLLPVEKALLAEPVEDWLRAHSI .
OUTPUT: not soluble

INPUT: What does the data say about its soluble on expression in E. coli? Entry: MSEVKVITGTSAAAEAAKLADVDVIAAYPITPQTTCVEKLADFVANGELNAEYIKVESEHSAMSASIAASATGARTFTATSSQGLALMHEVLFAAAGMRVPVVMMNANRALSAPINIWNDQQDSLSQRDTGWIQLYAEDNQEVLDLVIQAFKIAEDEKVLLPVMVNLDGFILTHTVEPVTLPKQESVLDFIGSYEPKHAYLDPKKPMTQGSLGDPNYYMETRYAIETAMRNAEKVIADVHDAFAEKFNRAYGNGLIESYNLEKAENVIVAMGSICGTIKDMIDLKKKEGVEIGLLKIRCYRPLPVEMIKDALKNAKNVAILDKSISLGMNKGAIYADVASFLKDKKTVNYIVGLGGRDITPEDILGIYVDVETSEDGKTNWVGLKEE
OUTPUT: not soluble

INPUT: Any idea what soluble on expression in E. coli was measured for MRIHSAGHSLPAPGPSVETTEKAVQSSSAQNPASCSSQTERPEAGSTQVRPNYPYSSVKTRLPPVSSTGQAISDTPSSLPGYLLLRRLDRRPLDEDSIKALVPADEALREARRALPFGRGNIDVDAQRTHLQSGARAVAAKRLRKDAERAGHEPMPENDEMNWHVLVAMSGQVFGAGNCGEHARIASFAYGALAQESGRSPREKIHLAEQPGKDHVWAETDNSSAGSSPIVMDPWSNGAAILAEDSRFAKDRSAVERTYSFTLAMAAEAGKVARETAENVLTHTTSRLQKRLADQLPNVSPLEGGRYQPEKSVLDEAFARRVSDKLNSDDPRRALQMEIEAVGVAMSLGAEGVKTVARQAPKVVRQARSVASSKGMPPRR ?
OUTPUT: not soluble

Next:
INPUT: Quick one: soluble on expression in E. coli for MAEQLEFFPVASPCRGICQSDERGFCRGCMRSRDERFNWQKMSDVEKQNVLRLCRQRFLRKIRANKPLPSEDPQQPSLF ?
OUTPUT: not soluble

INPUT: Query (sequence): MNKKIVMSFLAATVVTISGCASFADMAGADSATLNASAAQGFSKMTTEARQKGQLDTSSNTYRRINTVMQRMIPYANQMNQTGQPFQWQLAVIKSDTVNAYVAPGGKVVFYTGIVNKLNLSDAEIAAVMGHEMTHALEEHAKSKIGAEALTGLALNIGKAYAGDSIGQAGSAALDLGSQVGVGLPYSRNLESRADYGGLMLMAKAGYNPQAAITLWEKMNRMDGAGGPSFLSTHPSNNQRIQDMRKNLPAAMAVYNNRRLEHHHHHH ; field requested: soluble on expression in E. coli
OUTPUT: not soluble

INPUT: Reported soluble on expression in E. coli, sequence MSEEPVAAPGTISHPVYKLKRNWTWWYLNDERNKSWEERLKNVKTFSSVGEFWALHDSIKPPSGLNPPSDYNVFRDGIEPMWEVPQNQNGGRWLITIEKGRTPEIMDTIWTEILMAMIGEQFSDDIESLCGIVCNVRGKGSKISVWTTNSADDGANLRIGGVLKQVLNNASMIHQRPLYDVLRYEDHESCQKKTSSGVKAKHAIYAVEPREEKAPVPVSTETPATPAT : ____
OUTPUT: not soluble

INPUT: What soluble on expression in E. coli value was documented for this sequence, MTIYLVRHGESKSNYDNKHFRSYFCGQLDVPLTDTGTKSADDLCDYFKEKQIKHVYVSDLLRTQQTFEHIFPYDIASTTTPLLRERSLGVFEGEYKDEISANPKYEKYFNDPNFKDFRHSFSQKAPEGESYEDVYQRVEHFMNHVVNEDTQKDDIVIVAHQVVIRCLMVYFNKVSRAEAVDLKVENCKPYIIE ?
OUTPUT: not soluble
